assay: Inhibition of Enterococcus faecalis methionine aminopeptidase 1A using Met-AMC as substrate by Dixon method
Experimental Readout: pKi
A value of pKi is the negative decimal logarithm of a concentration given in moles per litre.

Cc1c(C(=O)/C=C(\O)C(=O)N[C@H](C)C(=O)O)oc2ccc(Br)cc12
4.92
CCOC(=O)/C(O)=C/C(=O)c1oc2ccc(Br)cc2c1C
4.97
Cc1c(C(=O)/C=C(\O)C(=O)O)oc2ccc(Br)cc12
4.75

Proceed to the following item.
*Q* # return recorded pKi for entry Cc1ccccc1C(=O)/C=C(\O)C(=O)N[C@H](C)C(=O)O
*A* 4.19
